Procedure Details: Phase solubility in deionized water (HPLC)
Type: physicochemical
Condition Summary: deionized H2O; quadruplicates
Procedure: The pH‐solubility profile of cGMPSA salts and free acid was determined by phase solubility techniques.[18] […] The sample was then analyzed by HPLC, and the solubility determined by integrating the area of the peak of interest against a standard curve. The solids were also analyzed by XRPD to record the crystal modification obtained.
Measured Attribute: solubility

>>> result("O=c1c2nc(Br)n([C@@H]3O[C@@H]4COP(=O)(S)O[C@H]4[C@H]3O)c2nc2[nH]c(-c3ccccc3)cn12 (stereo partly shown)")
"1.7 (±0.1) mg/mL"
>>> result("O=c1c2nc(Br)n([C@@H]3O[C@@H]4COP(=O)([S-])O[C@H]4[C@H]3O)c2nc2[nH]c(-c3ccccc3)cn12.[Na+] (stereo partly shown)")
"38.4 (±11.1) mg/mL"
>>> result("O=c1c2nc(Br)n([C@@H]3O[C@@H]4CO[P@@](O)(=S)O[C@H]4[C@H]3O)c2nc2[nH]c(-c3ccccc3)cn12.O=c1c2nc(Br)n([C@@H]3O[C@@H]4CO[P@@](O)(=S)O[C@H]4[C@H]3O)c2nc2[nH]c(-c3ccccc3)cn12.c1ccc(CNCCNCc2ccccc2)cc1")
"0.01 (±0.01) mg/mL"
>>> result("O=c1c2nc(Br)n([C@@H]3O[C@@H]4COP(=O)([S-])O[C@H]4[C@H]3O)c2nc2[nH]c(-c3ccccc3)cn12.O=c1c2nc(Br)n([C@@H]3O[C@@H]4COP(=O)([S-])O[C@H]4[C@H]3O)c2nc2[nH]c(-c3ccccc3)cn12.[Ca+2] (stereo partly shown)")
"0.28 (±0.2) mg/mL"

* * *

Procedure Details: Polymorph screen, approximate solubility in solvents (UHPLC)
Type: physicochemical
Condition Summary: organic solvent or mixture, thermodynamic from solid; solvent MeCN
Measured Attribute: solubility (µg/mL)

>>> number("O=c1c2nc(Br)n(C3OC4COP(O)(=S)OC4C3O)c2nc2[nH]c(-c3ccccc3)cn12 (stereo not shown)")
114

* * *

Procedure Details: Dynamic vapor sorption (DVS), water sorption as Δm
Assay type: physicochemical
Condition Summary: 60 % RH, sorption cycle 1 (S1), 25 °C
Measured Attribute: Water sorption Δm (%)

>>> number("O=c1c2nc(Br)n([C@@H]3O[C@@H]4COP(=O)([S-])O[C@H]4[C@H]3O)c2nc2[nH]c(-c3ccccc3)cn12.[Na+] (stereo partly shown) [cGMPSA‐Na]")
8.1
>>> number("O=c1c2nc(Br)n(C3OC4COP(O)(=S)OC4C3O)c2nc2[nH]c(-c3ccccc3)cn12 (stereo not shown) [cGMPSA‐TEA]")
4.0
>>> number("O=c1c2nc(Br)n([C@@H]3O[C@@H]4CO[P@@](O)(=S)O[C@H]4[C@H]3O)c2nc2[nH]c(-c3ccccc3)cn12.O=c1c2nc(Br)n([C@@H]3O[C@@H]4CO[P@@](O)(=S)O[C@H]4[C@H]3O)c2nc2[nH]c(-c3ccccc3)cn12.c1ccc(CNCCNCc2ccccc2)cc1 [cGMPSA‐BZ]")
1.9
>>> number("O=c1c2nc(Br)n([C@@H]3O[C@@H]4COP(=O)(S)O[C@H]4[C@H]3O)c2nc2[nH]c(-c3ccccc3)cn12 (stereo partly shown) [cGMPSA‐H]")
6.2
>>> number("NC(CO)(CO)CO.O=c1c2nc(Br)n([C@@H]3O[C@@H]4CO[P@@](O)(=S)O[C@H]4[C@H]3O)c2nc2[nH]c(-c3ccccc3)cn12 [cGMPSA‐Tris]")
6.0
>>> number("O=c1c2nc(Br)n([C@@H]3O[C@@H]4CO[P@@](O)(=S)O[C@H]4[C@H]3O)c2nc2[nH]c(-c3ccccc3)cn12.c1ccc(CCNCc2ccccc2)cc1 [cGMPSA‐Bnet]")
5.2
>>> number("O=c1c2nc(Br)n([C@@H]3O[C@@H]4COP(=O)([S-])O[C@H]4[C@H]3O)c2nc2[nH]c(-c3ccccc3)cn12.O=c1c2nc(Br)n([C@@H]3O[C@@H]4COP(=O)([S-])O[C@H]4[C@H]3O)c2nc2[nH]c(-c3ccccc3)cn12.[Ca+2] (stereo partly shown) [cGMPSA‐Ca]")
7.1

* * *

Procedure Details: Polymorph screen, approximate solubility in solvents (UHPLC)
Format: physicochemical
Condition Summary: organic solvent or mixture, thermodynamic from solid; solvent Diethyl ether
Measured Attribute: solubility (µg/mL)

>>> number("O=c1c2nc(Br)n(C3OC4COP(O)(=S)OC4C3O)c2nc2[nH]c(-c3ccccc3)cn12 (stereo not shown)")
3

* * *

Procedure Details: Dynamic vapor sorption (DVS), water sorption as Δm
Type: physicochemical
Condition Summary: 30 % RH, desorption cycle 2 (D2), 25 °C
Criterion: Water sorption Δm meeting or surpassing 6%. Met: yes (1). Not met: no (0).

>>> class_assignment("O=c1c2nc(Br)n([C@@H]3O[C@@H]4CO[P@@](O)(=S)O[C@H]4[C@H]3O)c2nc2[nH]c(-c3ccccc3)cn12.c1ccc(CCNCc2ccccc2)cc1 [cGMPSA‐Bnet]")
"no (0)"
>>> class_assignment("O=c1c2nc(Br)n([C@@H]3O[C@@H]4COP(=O)([S-])O[C@H]4[C@H]3O)c2nc2[nH]c(-c3ccccc3)cn12.[Na+] (stereo partly shown) [cGMPSA‐Na]")
"yes (1)"
>>> class_assignment("O=c1c2nc(Br)n(C3OC4COP(O)(=S)OC4C3O)c2nc2[nH]c(-c3ccccc3)cn12 (stereo not shown) [cGMPSA‐TEA]")
"no (0)"
>>> class_assignment("NC(CO)(CO)CO.O=c1c2nc(Br)n([C@@H]3O[C@@H]4CO[P@@](O)(=S)O[C@H]4[C@H]3O)c2nc2[nH]c(-c3ccccc3)cn12 [cGMPSA‐Tris]")
"no (0)"
>>> class_assignment("O=c1c2nc(Br)n([C@@H]3O[C@@H]4COP(=O)(S)O[C@H]4[C@H]3O)c2nc2[nH]c(-c3ccccc3)cn12 (stereo partly shown) [cGMPSA‐H]")
"no (0)"
>>> class_assignment("O=c1c2nc(Br)n([C@@H]3O[C@@H]4CO[P@@](O)(=S)O[C@H]4[C@H]3O)c2nc2[nH]c(-c3ccccc3)cn12.O=c1c2nc(Br)n([C@@H]3O[C@@H]4CO[P@@](O)(=S)O[C@H]4[C@H]3O)c2nc2[nH]c(-c3ccccc3)cn12.c1ccc(CNCCNCc2ccccc2)cc1 [cGMPSA‐BZ]")
"no (0)"
>>> class_assignment("O=c1c2nc(Br)n([C@@H]3O[C@@H]4COP(=O)([S-])O[C@H]4[C@H]3O)c2nc2[nH]c(-c3ccccc3)cn12.O=c1c2nc(Br)n([C@@H]3O[C@@H]4COP(=O)([S-])O[C@H]4[C@H]3O)c2nc2[nH]c(-c3ccccc3)cn12.[Ca+2] (stereo partly shown) [cGMPSA‐Ca]")
"yes (1)"

* * *

Procedure Details: Polymorph screen, approximate solubility in solvents (UHPLC)
Format: physicochemical
Condition Summary: aqueous with cosolvent or surfactant or cyclodextrin, thermodynamic from solid; solvent EtOH+H2O 1 : 1 v/v; solution
Measured Attribute: solubility

>>> result("O=c1c2nc(Br)n(C3OC4COP(O)(=S)OC4C3O)c2nc2[nH]c(-c3ccccc3)cn12 (stereo not shown)")
"> 40 mg/mL"

* * *

Procedure Details: Polymorph screen, approximate solubility in solvents (UHPLC)
Type: physicochemical
Condition Summary: organic solvent or mixture, thermodynamic from solid; solvent n‐BuOH
Measured Attribute: solubility (mg/mL)

>>> number("O=c1c2nc(Br)n(C3OC4COP(O)(=S)OC4C3O)c2nc2[nH]c(-c3ccccc3)cn12 (stereo not shown)")
0.21

* * *

# maps each entry to its Water sorption Δm
Procedure Details: Dynamic vapor sorption (DVS), water sorption as Δm
Assay type: physicochemical
Condition Summary: 30 % RH, sorption cycle 1 (S1), 25 °C
Procedure: The samples were analyzed at 25 °C with a Surface Measurements Systems DVS Advantage. A sample was weighted into a weighing pan and its mass was monitored while it was exposed to different relative humidities (%RH=%P/P0). Before the analysis, the weighing pan was subject to an antistatic program. The analysis program consisted of two cycles. […]
Measured Attribute: Water sorption Δm

>>> result("O=c1c2nc(Br)n([C@@H]3O[C@@H]4COP(=O)(S)O[C@H]4[C@H]3O)c2nc2[nH]c(-c3ccccc3)cn12 (stereo partly shown) [cGMPSA‐H]")
"5.3%"
>>> result("O=c1c2nc(Br)n(C3OC4COP(O)(=S)OC4C3O)c2nc2[nH]c(-c3ccccc3)cn12 (stereo not shown) [cGMPSA‐TEA]")
"3.4%"
>>> result("O=c1c2nc(Br)n([C@@H]3O[C@@H]4CO[P@@](O)(=S)O[C@H]4[C@H]3O)c2nc2[nH]c(-c3ccccc3)cn12.c1ccc(CCNCc2ccccc2)cc1 [cGMPSA‐Bnet]")
"3.4%"
>>> result("NC(CO)(CO)CO.O=c1c2nc(Br)n([C@@H]3O[C@@H]4CO[P@@](O)(=S)O[C@H]4[C@H]3O)c2nc2[nH]c(-c3ccccc3)cn12 [cGMPSA‐Tris]")
"4.9%"
>>> result("O=c1c2nc(Br)n([C@@H]3O[C@@H]4COP(=O)([S-])O[C@H]4[C@H]3O)c2nc2[nH]c(-c3ccccc3)cn12.[Na+] (stereo partly shown) [cGMPSA‐Na]")
"2.2%"
>>> result("O=c1c2nc(Br)n([C@@H]3O[C@@H]4COP(=O)([S-])O[C@H]4[C@H]3O)c2nc2[nH]c(-c3ccccc3)cn12.O=c1c2nc(Br)n([C@@H]3O[C@@H]4COP(=O)([S-])O[C@H]4[C@H]3O)c2nc2[nH]c(-c3ccccc3)cn12.[Ca+2] (stereo partly shown) [cGMPSA‐Ca]")
"5.3%"
>>> result("O=c1c2nc(Br)n([C@@H]3O[C@@H]4CO[P@@](O)(=S)O[C@H]4[C@H]3O)c2nc2[nH]c(-c3ccccc3)cn12.O=c1c2nc(Br)n([C@@H]3O[C@@H]4CO[P@@](O)(=S)O[C@H]4[C@H]3O)c2nc2[nH]c(-c3ccccc3)cn12.c1ccc(CNCCNCc2ccccc2)cc1 [cGMPSA‐BZ]")
"0.6%"
